# protocol-details: M. tuberculosis H37Rv growth inhibitors, H37Rv strain (AID 1626);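 further: bacteria incubated seven days before Alamar blue readout; 0% = bacteria only wells and 100% = bacteria with antibiotic wells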
# condition-description: active compounds read high, concentration not given here
The whole screen tested about 220,000 compounds, of which about 2,000 (0.91%) were called active. Not shown: some 2% with an inconclusive outcome. Only a sample is shown. Potency and affinity values are given separately.
observed-property: inhibition

Endpoint output: inhibition of `CCOC(=O)c1c(-c2ccncc2)csc1N` . Value?
9.94% (inactive)

// same read-out, input: `Cc1cccc(-c2cc(=O)c(C(=O)O)cn2-c2ccc(F)cc2F)c1`
-8.14% (inactive)

Same thing, different compound: `N/C(CN1CCCC1=O)=N\OC(=O)c1ccccc1Cl`
-4.21% (inactive)

Same lookup for `O=C(O)c1cn(C2CCCCC2)c2ccccc2c1=O` , please.
-2.4% (inactive)

Repeat for the following compound: `CCn1cc(C(=O)O)c(=O)c2cc(F)c(N3CCN(C(=S)NC(=O)c4ccc(F)cc4)CC3)cc21`
15.9% (inactive)

Could you do the same for CC(O)[C@H]1CNC(=O)C(=O)N1CCC12CC3CC(CC(C3)C1)C2 (some centres undefined) , please?
-0.53% (inactive)

Queued: CC(C)CCNC1=CC(=O)CC(c2ccccc2)C1 (centres undefined)
-3.24% (inactive)

For `Cc1cc(C)c(-c2cc(NC(=O)COC(=O)c3ccc(CO)cc3)n(-c3ccccc3)n2)cc1C` then?
4.29% (inactive)

Input C=C(C)C1CC=C(CN2CC(C)OC(C)C2)CC1 (centres undefined)
-0.53% (inactive)

`Cc1c2c(nc3ccccc13)OCC2` ?
-16.5% (inactive)

And the next one, `CN(C)c1oc(COc2ccc(F)cc2)nc1C#N` ?
0.53% (inactive)

Queued: CC1CCc2cc(F)cc3c(=O)c(C(=O)O)cn1c23 (centres undefined)
14.4% (inactive)

Field entry: `Nc1nc(CN2CCCCCC2)nc(Nc2ccccc2)n1`
0.64% (inactive)

What do you have for `COc1ccc(C(=O)c2ccc3oc(-c4ccc(OC)cc4)c(C#CCCO)c3c2)cc1` ?
6.95% (inactive)
